Kindly state MIC for each of the entries shown.
# assay explanation: Antifungal activity against Madurella mycetomatis isolate 45 by XTT assay
# Format: functional
// units = µg/mL; emit number, no label

Given the entry CC(=O)N1CCN(c2ccc(OCC3COC(Cn4ccnc4)(c4ccc(Cl)cc4Cl)O3)cc2)CC1 (centres undefined) , report its measured MIC. 0.25

Given the entry CC[C@H](C)C[C@H](C)CCCCCCCCC(=O)N[C@H]1C[C@@H](O)[C@@H](NCCN)NC(=O)[C@@H]2[C@@H](O)CCN2C(=O)[C@H]([C@H](O)CCN)NC(=O)[C@H]([C@H](O)[C@@H](O)c2ccc(O)cc2)NC(=O)[C@@H]2C[C@@H](O)CN2C(=O)[C@H]([C@@H](C)O)NC1=O , report its measured MIC. 64

---

# assay explanation: Antifungal activity against Madurella mycetomatis isolate 64 by XTT assay
# Type: functional
Kindly state MIC for each of the entries shown.
// units = µg/mL; emit number, no label

Given the entry CC(=O)N1CCN(c2ccc(OCC3COC(Cn4ccnc4)(c4ccc(Cl)cc4Cl)O3)cc2)CC1 (centres undefined) , report its measured MIC. 0.063

Given the entry CC[C@H](C)C[C@H](C)CCCCCCCCC(=O)N[C@H]1C[C@@H](O)[C@@H](NCCN)NC(=O)[C@@H]2[C@@H](O)CCN2C(=O)[C@H]([C@H](O)CCN)NC(=O)[C@H]([C@H](O)[C@@H](O)c2ccc(O)cc2)NC(=O)[C@@H]2C[C@@H](O)CN2C(=O)[C@H]([C@@H](C)O)NC1=O , report its measured MIC. 64

---

# assay explanation: Antifungal activity against Madurella mycetomatis isolate 83 by XTT assay
# Format: functional
Numbered stars: 1 amine (or outer) side, 2 acyl side, 3 side chain; on linkers, the order of the positions; unused ones are H or OH. Bridge positions count the residues as written; N and C are the ends. Square brackets hold non-standard residues; d marks the D form. Peptide text beside a SMILES is read from it. * marks the point of attachment. hTyr(3S-OH,4S-OH,3'-OSO3H) = N[C@H](C(=O)O)[C@H](O)[C@@H](O)c1ccc(O)c(OS(=O)(=O)O)c1; Orn(4R-OH,5R-OH) = O=C([C@H](C[C@@H](O)[C@@H](O)N[*:3])N[*:1])[*:2]; Pro(3S-OH,4S-Me) = C[C@H]1CN[C@H](C(=O)O)[C@H]1O; X1 = CCCCCOc1ccc(-c2cc(-c3ccc(C(=O)*)cc3)no2)cc1; Gln(3R-OH) = NC(=O)C[C@@H](O)[C@H](N)C(=O)O; Hyp = O=C(O)[C@@H]1C[C@@H](O)CN1
experimental readout: MIC (µg/mL)
// units = µg/mL; emit number, no label

Given the entry CC[C@H](C)C[C@H](C)CCCCCCCCC(=O)N[C@H]1C[C@@H](O)[C@@H](NCCN)NC(=O)[C@@H]2[C@@H](O)CCN2C(=O)[C@H]([C@H](O)CCN)NC(=O)[C@H]([C@H](O)[C@@H](O)c2ccc(O)cc2)NC(=O)[C@@H]2C[C@@H](O)CN2C(=O)[C@H]([C@@H](C)O)NC1=O [CASPOFUNGIN] , report its measured MIC. 128

Given the entry CC(=O)N1CCN(c2ccc(OCC3COC(Cn4ccnc4)(c4ccc(Cl)cc4Cl)O3)cc2)CC1 (stereo not drawn) , report its measured MIC. 0.125

Given the entry CCCCCOc1ccc(-c2cc(-c3ccc(C(=O)N[C@H]4C[C@@H](O)[C@@H](O)NC(=O)[C@@H]5[C@@H](O)[C@@H](C)CN5C(=O)[C@H]([C@H](O)CC(N)=O)NC(=O)[C@H]([C@H](O)[C@@H](O)c5ccc(O)c(OS(=O)(=O)O)c5)NC(=O)[C@@H]5C[C@@H](O)CN5C(=O)[C@H]([C@@H](C)O)NC4=O)cc3)no2)cc1 [MICAFUNGIN] (X1-[Orn(4R-OH,5R-OH)]T[Hyp][hTyr(3S-OH,4S-OH,3'-OSO3H)][Gln(3R-OH)][Pro(3S-OH,4S-Me)]; lactam 1-C) , report its measured MIC. 128

---

# assay explanation: Antifungal activity against Madurella mycetomatis isolate 52 by XTT assay
# Format: functional
Kindly state MIC for each of the entries shown.
// units = µg/mL; emit number, no label

Given the entry CC[C@H](C)C[C@H](C)CCCCCCCCC(=O)N[C@H]1C[C@@H](O)[C@@H](NCCN)NC(=O)[C@@H]2[C@@H](O)CCN2C(=O)[C@H]([C@H](O)CCN)NC(=O)[C@H]([C@H](O)[C@@H](O)c2ccc(O)cc2)NC(=O)[C@@H]2C[C@@H](O)CN2C(=O)[C@H]([C@@H](C)O)NC1=O [CASPOFUNGIN] , report its measured MIC. 128

Given the entry CC(=O)N1CCN(c2ccc(OCC3COC(Cn4ccnc4)(c4ccc(Cl)cc4Cl)O3)cc2)CC1 (centres undefined) , report its measured MIC. 0.25

---

Kindly state MIC for each of the entries shown.
# assay explanation: Antifungal activity against Madurella mycetomatis isolate 46 by XTT assay
# Format: functional
// units = µg/mL; emit number, no label

Given the entry CC(=O)N1CCN(c2ccc(OCC3COC(Cn4ccnc4)(c4ccc(Cl)cc4Cl)O3)cc2)CC1 (centres undefined) , report its measured MIC. 0.016

Given the entry CC[C@H](C)C[C@H](C)CCCCCCCCC(=O)N[C@H]1C[C@@H](O)[C@@H](NCCN)NC(=O)[C@@H]2[C@@H](O)CCN2C(=O)[C@H]([C@H](O)CCN)NC(=O)[C@H]([C@H](O)[C@@H](O)c2ccc(O)cc2)NC(=O)[C@@H]2C[C@@H](O)CN2C(=O)[C@H]([C@@H](C)O)NC1=O [CASPOFUNGIN] , report its measured MIC. 64

---

# assay explanation: Antifungal activity against Madurella mycetomatis isolate 83 by XTT assay
# Type: functional
Numbered stars: 1 amine (or outer) side, 2 acyl side, 3 side chain; on linkers, the order of the positions; unused ones are H or OH. Bridge positions count the residues as written; N and C are the ends. Square brackets hold non-standard residues; d marks the D form. Peptide text beside a SMILES is read from it. * marks the point of attachment. pTerphenylCO(4''-OnC5H11) = CCCCCOc1ccc(-c2ccc(-c3ccc(C(=O)*)cc3)cc2)cc1; Orn(4R-OH,5R-OH) = O=C([C@H](C[C@@H](O)[C@@H](O)N[*:3])N[*:1])[*:2]; hTyr(3S-OH,4S-OH) = N[C@H](C(=O)O)[C@H](O)[C@@H](O)c1ccc(O)cc1; Pro(3S-OH,4S-Me) = C[C@H]1CN[C@H](C(=O)O)[C@H]1O; Hyp = O=C(O)[C@@H]1C[C@@H](O)CN1
experimental readout: MIC

Given the entry CCCCCOc1ccc(-c2ccc(-c3ccc(C(=O)N[C@H]4C[C@@H](O)[C@@H](O)NC(=O)[C@@H]5[C@@H](O)[C@@H](C)CN5C(=O)[C@H]([C@@H](C)O)NC(=O)[C@H]([C@H](O)[C@@H](O)c5ccc(O)cc5)NC(=O)[C@@H]5C[C@@H](O)CN5C(=O)[C@H]([C@@H](C)O)NC4=O)cc3)cc2)cc1 [ANIDULAFUNGIN] ({pTerphenylCO(4''-OnC5H11)}-[Orn(4R-OH,5R-OH)]T[Hyp][hTyr(3S-OH,4S-OH)]T[Pro(3S-OH,4S-Me)]; lactam 1-C) , report its measured MIC. > 128 µg/mL

---

# assay explanation: Antifungal activity against Madurella mycetomatis isolate 39 by XTT assay
# Assay type: functional
experimental readout: MIC (µg/mL)
// units = µg/mL; emit number, no label

Given the entry CC[C@H](C)C[C@H](C)CCCCCCCCC(=O)N[C@H]1C[C@@H](O)[C@@H](NCCN)NC(=O)[C@@H]2[C@@H](O)CCN2C(=O)[C@H]([C@H](O)CCN)NC(=O)[C@H]([C@H](O)[C@@H](O)c2ccc(O)cc2)NC(=O)[C@@H]2C[C@@H](O)CN2C(=O)[C@H]([C@@H](C)O)NC1=O , report its measured MIC. 64

---

# assay explanation: Antifungal activity against Madurella mycetomatis isolate 39 by XTT assay
# Type: functional
Numbered stars: 1 amine (or outer) side, 2 acyl side, 3 side chain; on linkers, the order of the positions; unused ones are H or OH. Bridge positions count the residues as written; N and C are the ends. Square brackets hold non-standard residues; d marks the D form. Peptide text beside a SMILES is read from it. * marks the point of attachment. hTyr(3S-OH,4S-OH,3'-OSO3H) = N[C@H](C(=O)O)[C@H](O)[C@@H](O)c1ccc(O)c(OS(=O)(=O)O)c1; pTerphenylCO(4''-OnC5H11) = CCCCCOc1ccc(-c2ccc(-c3ccc(C(=O)*)cc3)cc2)cc1; Orn(4R-OH,5R-OH) = O=C([C@H](C[C@@H](O)[C@@H](O)N[*:3])N[*:1])[*:2]; hTyr(3S-OH,4S-OH) = N[C@H](C(=O)O)[C@H](O)[C@@H](O)c1ccc(O)cc1; Pro(3S-OH,4S-Me) = C[C@H]1CN[C@H](C(=O)O)[C@H]1O; X1 = CCCCCOc1ccc(-c2cc(-c3ccc(C(=O)*)cc3)no2)cc1; Gln(3R-OH) = NC(=O)C[C@@H](O)[C@H](N)C(=O)O; Hyp = O=C(O)[C@@H]1C[C@@H](O)CN1
Kindly state MIC for each of the entries shown.

Given the entry CCCCCOc1ccc(-c2cc(-c3ccc(C(=O)N[C@H]4C[C@@H](O)[C@@H](O)NC(=O)[C@@H]5[C@@H](O)[C@@H](C)CN5C(=O)[C@H]([C@H](O)CC(N)=O)NC(=O)[C@H]([C@H](O)[C@@H](O)c5ccc(O)c(OS(=O)(=O)O)c5)NC(=O)[C@@H]5C[C@@H](O)CN5C(=O)[C@H]([C@@H](C)O)NC4=O)cc3)no2)cc1 [MICAFUNGIN] (X1-[Orn(4R-OH,5R-OH)]T[Hyp][hTyr(3S-OH,4S-OH,3'-OSO3H)][Gln(3R-OH)][Pro(3S-OH,4S-Me)]; lactam 1-C) , report its measured MIC. > 128 mg/L

Given the entry CCCCCOc1ccc(-c2ccc(-c3ccc(C(=O)N[C@H]4C[C@@H](O)[C@@H](O)NC(=O)[C@@H]5[C@@H](O)[C@@H](C)CN5C(=O)[C@H]([C@@H](C)O)NC(=O)[C@H]([C@H](O)[C@@H](O)c5ccc(O)cc5)NC(=O)[C@@H]5C[C@@H](O)CN5C(=O)[C@H]([C@@H](C)O)NC4=O)cc3)cc2)cc1 [ANIDULAFUNGIN] ({pTerphenylCO(4''-OnC5H11)}-[Orn(4R-OH,5R-OH)]T[Hyp][hTyr(3S-OH,4S-OH)]T[Pro(3S-OH,4S-Me)]; lactam 1-C) , report its measured MIC. > 128 mg/L

Given the entry CC(=O)N1CCN(c2ccc(OCC3COC(Cn4ccnc4)(c4ccc(Cl)cc4Cl)O3)cc2)CC1 (stereo not drawn) , report its measured MIC. 0.031 mg/L
